molecular target: HLA-A*26:01; test: IEDB peptide-MHC binding, purified MHC/direct/fluorescence; filed as Kd, often an IC50 or EC50 that approximates it; bounds were set here for any values at or beyond the usual limits of such assays; details: source organism: Shigella flexneri
PROPERTY NAME: Kd

Field request: Kd | item: KTTLFHTFK
≥ 20 µM

----------
biological target: HLA-A*31:01; assay: IEDB peptide-MHC binding, purified MHC/direct/fluorescence; filed as Kd, often an IC50 or EC50 that approximates it; bounds were set here for any values at or beyond the usual limits of such assays; conditions: source organism: Giardia lamblia ATCC 50803
PROPERTY NAME: Kd

> print(dat)
   record.sequence  property.name  data.value
1        ETESVNSNY             Kd     ≥ 20 µM

Field request: Kd | item: SHSIPNGLL
≥ 20 µM

----------
target: HLA-B*46:01; experiment: IEDB peptide-MHC binding, purified MHC/direct/fluorescence; filed as Kd, often an IC50 or EC50 that approximates it; bounds were set here for any values at or beyond the usual limits of such assays; settings: source organism: Yersinia pestis CA88-4125
pKd: −log10 of the molar value.
PROPERTY NAME: pKd

Field request: pKd | item: LPEAYQWHI
≤ 4.70

----------
target: HLA-A*02:06; assay: IEDB peptide-MHC binding, purified MHC/competitive/radioactivity; filed as Kd, often an IC50 or EC50 that approximates it; bounds were set here for any values at or beyond the usual limits of such assays; conditions: source organism: Mammarenavirus whitewaterense
PROPERTY NAME: Kd (µM)
Answers are plain numbers, in µM.

> print(dat)
   record.sequence  readout.unit  data.value
1        FSAVISGSV            µM       0.161

// next entry
Field request: Kd | item: KTVAGSFAS
9.13

----------
molecular target: HLA-A*24:03; assay: IEDB peptide-MHC binding, purified MHC/direct/fluorescence; filed as Kd, often an IC50 or EC50 that approximates it; bounds were set here for any values at or beyond the usual limits of such assays; details: source organism: Zaire ebolavirus
PROPERTY NAME: Kd

Field request: Kd | item: TAAIMLASY
≥ 20 µM

----------
biological target: HLA-A*01:01; experiment: IEDB peptide-MHC binding, purified MHC/competitive/radioactivity; filed as Kd, often an IC50 or EC50 that approximates it; bounds were set here for any values at or beyond the usual limits of such assays; conditions: source organism: Dengue virus 4 Philippines/H241/1956
PROPERTY NAME: pKd
Answers are plain numbers, as −log10 of the molar value.

Here is how some sequences turned out for pKd.
> print(dat)
   record.sequence  data.value
1        NTSANLSLA        5.87
2        MTDTTPFGQ        5.42

// next entry
Field request: pKd | item: PSSVAARGY
6.70

----------
target: HLA-B*08:01; assay: IEDB peptide-MHC binding, purified MHC/direct/fluorescence; filed as Kd, often an IC50 or EC50 that approximates it; bounds were set here for any values at or beyond the usual limits of such assays; settings: source organism: Vibrio cholerae
PROPERTY NAME: pKd
Numbers only, as −log10 of the molar value.

Field request: pKd | item: RPRIRLSAP
5.72

----------
molecular target: HLA-B*35:01; experiment: IEDB peptide-MHC binding, purified MHC/competitive/radioactivity; filed as Kd, often an IC50 or EC50 that approximates it; bounds were set here for any values at or beyond the usual limits of such assays; settings: source organism: Mammarenavirus guanaritoense
PROPERTY NAME: Kd (nM)
Numbers only, in nM.

Field request: Kd | item: LPNTLVFQA
82.8

----------
target: HLA-A*31:01; assay: IEDB peptide-MHC binding, purified MHC/competitive/fluorescence; filed as Kd, often an IC50 or EC50 that approximates it; bounds were set here for any values at or beyond the usual limits of such assays; details: source organism: Escherichia coli O157:H7 str. EDL933
PROPERTY NAME: pKd
Numbers only, as −log10 of the molar value.

Field request: pKd | item: SVAPGTDFR
8.15

----------
molecular target: HLA-B*40:01; assay: IEDB peptide-MHC binding, purified MHC/direct/fluorescence; filed as Kd, often an IC50 or EC50 that approximates it; bounds were set here for any values at or beyond the usual limits of such assays; settings: source organism: Haemophilus influenzae
PROPERTY NAME: pKd
Answers are plain numbers, as −log10 of the molar value.

Field request: pKd | item: EQFPNATAF
5.53

----------
For each record, write down the corresponding Kd.
molecular target: HLA-A*03:01; assay: IEDB peptide-MHC binding, purified MHC/direct/fluorescence; filed as Kd, often an IC50 or EC50 that approximates it; bounds were set here for any values at or beyond the usual limits of such assays; conditions: source organism: Vibrio vulnificus

> print(dat)
   record.sequence  data.value
1        NGYRWQHQI     ≥ 20 µM

// next entry
Field request: Kd | item: GSEVPGFCH
≥ 20 µM

----------
molecular target: HLA-B*57:01; test: IEDB peptide-MHC binding, purified MHC/direct/fluorescence; filed as Kd, often an IC50 or EC50 that approximates it; bounds were set here for any values at or beyond the usual limits of such assays; settings: source organism: Yersinia pestis CA88-4125
pKd: −log10 of the molar value.
PROPERTY NAME: pKd

Field request: pKd | item: LPEAYQWHI
≤ 4.70

----------
target: HLA-A*31:01; test: IEDB peptide-MHC binding, purified MHC/competitive/radioactivity; filed as Kd, often an IC50 or EC50 that approximates it; bounds were set here for any values at or beyond the usual limits of such assays; details: source organism: Dengue virus 3 Martinique/1243/1999
PROPERTY NAME: pKd
One number for each entry, as −log10 of the molar value.

Please give pKd for each item listed below.
1. LLNRFTMTHR
2. FFLRKLTSR
3. GVCGIRSTTR

1. 7.82
2. 7.32
3. 7.57

----------
For each record, write down the corresponding pKd.
molecular target: HLA-B*07:02; test: IEDB peptide-MHC binding, purified MHC/competitive/radioactivity; filed as Kd, often an IC50 or EC50 that approximates it; bounds were set here for any values at or beyond the usual limits of such assays; conditions: source organism: Dengue virus 2 Jamaica/1409/1983
Numbers only, as −log10 of the molar value.

Please give pKd for each item listed below.
1. SPNPTIEAGR
2. QPHWIAASII

5.85
7.32

----------
For each record, write down the corresponding Kd.
target: HLA-B*44:02; test: IEDB peptide-MHC binding, purified MHC/competitive/radioactivity; filed as Kd, often an IC50 or EC50 that approximates it; bounds were set here for any values at or beyond the usual limits of such assays; settings: source organism: Dengue virus 1 Brazil/97-11/1997
Numbers only, in nM.

> print(dat)
   record.sequence  target.system  property.name  data.value
1        HEMYWVSCG    HLA-B*44:02             Kd        37.4

// next entry
Field request: Kd | item: EERDIPERSW
72.4

----------
molecular target: HLA-B*39:01; experiment: IEDB peptide-MHC binding, purified MHC/competitive/fluorescence; filed as Kd, often an IC50 or EC50 that approximates it; bounds were set here for any values at or beyond the usual limits of such assays; conditions: source organism: Four Corners hantavirus
PROPERTY NAME: Kd

Field request: Kd | item: KLKKKSAFY
≥ 20 µM

----------
molecular target: HLA-A*02:16; test: IEDB peptide-MHC binding, purified MHC/direct/fluorescence; filed as Kd, often an IC50 or EC50 that approximates it; bounds were set here for any values at or beyond the usual limits of such assays; conditions: source organism: Yersinia pestis CA88-4125
pKd: −log10 of the molar value.
PROPERTY NAME: pKd

Field request: pKd | item: AMQDPNPEV
≥ 9.00

----------
molecular target: HLA-A*68:01; assay: IEDB peptide-MHC binding, purified MHC/competitive/radioactivity; filed as Kd, often an IC50 or EC50 that approximates it; bounds were set here for any values at or beyond the usual limits of such assays; settings: source organism: Lassa virus Josiah
PROPERTY NAME: Kd (µM)
Give bare numbers, in µM.

Field request: Kd | item: TTGRTSLPK
13.3

----------
target: HLA-A*24:02; test: IEDB peptide-MHC binding, purified MHC/competitive/radioactivity; filed as Kd, often an IC50 or EC50 that approximates it; bounds were set here for any values at or beyond the usual limits of such assays; conditions: source organism: Mammarenavirus guanaritoense
PROPERTY NAME: pKd
Give bare numbers, as −log10 of the molar value.

Field request: pKd | item: ILLNNPNLF
6.10

----------
biological target: HLA-A*02:17; test: IEDB peptide-MHC binding, purified MHC/competitive/radioactivity; filed as Kd, often an IC50 or EC50 that approximates it; bounds were set here for any values at or beyond the usual limits of such assays; details: source organism: Dengue virus 2 Thailand/NGS-C/1944
PROPERTY NAME: Kd (nM)
Answers are plain numbers, in nM.

Field request: Kd | item: FLFLMSGRGI
726
